- measured_target: Lysine-specific demethylase 5C (Homo sapiens, UniProt P41229)
- Sequence (P41229 whole entry): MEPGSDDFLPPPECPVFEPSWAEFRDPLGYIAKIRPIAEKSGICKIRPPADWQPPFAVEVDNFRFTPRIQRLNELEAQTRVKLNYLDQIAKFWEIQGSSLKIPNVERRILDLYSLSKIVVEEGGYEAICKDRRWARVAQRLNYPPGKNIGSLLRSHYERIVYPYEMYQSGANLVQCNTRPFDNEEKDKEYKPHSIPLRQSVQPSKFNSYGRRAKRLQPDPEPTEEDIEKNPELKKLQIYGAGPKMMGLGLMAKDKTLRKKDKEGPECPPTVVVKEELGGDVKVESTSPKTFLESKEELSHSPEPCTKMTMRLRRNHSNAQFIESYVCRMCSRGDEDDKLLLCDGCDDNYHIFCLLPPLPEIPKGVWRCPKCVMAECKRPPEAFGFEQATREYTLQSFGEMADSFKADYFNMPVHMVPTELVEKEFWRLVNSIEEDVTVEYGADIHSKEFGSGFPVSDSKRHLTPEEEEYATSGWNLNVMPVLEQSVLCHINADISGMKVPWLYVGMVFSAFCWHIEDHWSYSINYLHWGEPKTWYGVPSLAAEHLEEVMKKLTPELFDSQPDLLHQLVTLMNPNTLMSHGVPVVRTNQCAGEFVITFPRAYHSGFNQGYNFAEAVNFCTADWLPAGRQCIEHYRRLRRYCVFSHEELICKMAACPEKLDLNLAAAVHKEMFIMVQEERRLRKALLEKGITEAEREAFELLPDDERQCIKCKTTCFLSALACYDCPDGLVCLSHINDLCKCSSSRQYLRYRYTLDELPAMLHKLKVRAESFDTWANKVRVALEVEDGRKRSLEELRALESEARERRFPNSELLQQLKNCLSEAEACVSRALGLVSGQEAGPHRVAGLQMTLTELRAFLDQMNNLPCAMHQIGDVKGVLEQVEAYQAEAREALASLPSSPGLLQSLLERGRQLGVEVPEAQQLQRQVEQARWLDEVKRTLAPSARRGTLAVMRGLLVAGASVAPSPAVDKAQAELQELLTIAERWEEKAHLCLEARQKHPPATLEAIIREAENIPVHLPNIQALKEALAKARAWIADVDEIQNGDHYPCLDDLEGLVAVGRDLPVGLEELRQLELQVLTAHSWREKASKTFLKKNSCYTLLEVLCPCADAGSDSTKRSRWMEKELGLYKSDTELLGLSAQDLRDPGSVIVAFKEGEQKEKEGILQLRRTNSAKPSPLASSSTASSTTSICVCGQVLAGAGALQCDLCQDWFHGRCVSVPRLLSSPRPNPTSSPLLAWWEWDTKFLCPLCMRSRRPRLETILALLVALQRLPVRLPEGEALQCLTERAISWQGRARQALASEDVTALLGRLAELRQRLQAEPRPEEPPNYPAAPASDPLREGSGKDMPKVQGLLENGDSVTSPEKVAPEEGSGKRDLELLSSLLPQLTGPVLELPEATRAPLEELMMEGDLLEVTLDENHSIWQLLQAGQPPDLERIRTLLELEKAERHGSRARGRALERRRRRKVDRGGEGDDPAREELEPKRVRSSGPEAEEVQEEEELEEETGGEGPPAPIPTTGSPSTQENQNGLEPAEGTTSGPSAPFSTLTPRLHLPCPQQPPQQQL
test_readout: pIC50
The value called pIC50 is obtained by taking minus log10 of the concentration in mol/L.

Report pIC50, nothing else, for this compound: Clc1ccc(N/N=C(\c2ccccc2)c2ccccn2)nc1
4.38

====

- measured_target: Lysine-specific demethylase 5B (Homo sapiens, UniProt Q9UGL1)
- Sequence (Q9UGL1 whole entry): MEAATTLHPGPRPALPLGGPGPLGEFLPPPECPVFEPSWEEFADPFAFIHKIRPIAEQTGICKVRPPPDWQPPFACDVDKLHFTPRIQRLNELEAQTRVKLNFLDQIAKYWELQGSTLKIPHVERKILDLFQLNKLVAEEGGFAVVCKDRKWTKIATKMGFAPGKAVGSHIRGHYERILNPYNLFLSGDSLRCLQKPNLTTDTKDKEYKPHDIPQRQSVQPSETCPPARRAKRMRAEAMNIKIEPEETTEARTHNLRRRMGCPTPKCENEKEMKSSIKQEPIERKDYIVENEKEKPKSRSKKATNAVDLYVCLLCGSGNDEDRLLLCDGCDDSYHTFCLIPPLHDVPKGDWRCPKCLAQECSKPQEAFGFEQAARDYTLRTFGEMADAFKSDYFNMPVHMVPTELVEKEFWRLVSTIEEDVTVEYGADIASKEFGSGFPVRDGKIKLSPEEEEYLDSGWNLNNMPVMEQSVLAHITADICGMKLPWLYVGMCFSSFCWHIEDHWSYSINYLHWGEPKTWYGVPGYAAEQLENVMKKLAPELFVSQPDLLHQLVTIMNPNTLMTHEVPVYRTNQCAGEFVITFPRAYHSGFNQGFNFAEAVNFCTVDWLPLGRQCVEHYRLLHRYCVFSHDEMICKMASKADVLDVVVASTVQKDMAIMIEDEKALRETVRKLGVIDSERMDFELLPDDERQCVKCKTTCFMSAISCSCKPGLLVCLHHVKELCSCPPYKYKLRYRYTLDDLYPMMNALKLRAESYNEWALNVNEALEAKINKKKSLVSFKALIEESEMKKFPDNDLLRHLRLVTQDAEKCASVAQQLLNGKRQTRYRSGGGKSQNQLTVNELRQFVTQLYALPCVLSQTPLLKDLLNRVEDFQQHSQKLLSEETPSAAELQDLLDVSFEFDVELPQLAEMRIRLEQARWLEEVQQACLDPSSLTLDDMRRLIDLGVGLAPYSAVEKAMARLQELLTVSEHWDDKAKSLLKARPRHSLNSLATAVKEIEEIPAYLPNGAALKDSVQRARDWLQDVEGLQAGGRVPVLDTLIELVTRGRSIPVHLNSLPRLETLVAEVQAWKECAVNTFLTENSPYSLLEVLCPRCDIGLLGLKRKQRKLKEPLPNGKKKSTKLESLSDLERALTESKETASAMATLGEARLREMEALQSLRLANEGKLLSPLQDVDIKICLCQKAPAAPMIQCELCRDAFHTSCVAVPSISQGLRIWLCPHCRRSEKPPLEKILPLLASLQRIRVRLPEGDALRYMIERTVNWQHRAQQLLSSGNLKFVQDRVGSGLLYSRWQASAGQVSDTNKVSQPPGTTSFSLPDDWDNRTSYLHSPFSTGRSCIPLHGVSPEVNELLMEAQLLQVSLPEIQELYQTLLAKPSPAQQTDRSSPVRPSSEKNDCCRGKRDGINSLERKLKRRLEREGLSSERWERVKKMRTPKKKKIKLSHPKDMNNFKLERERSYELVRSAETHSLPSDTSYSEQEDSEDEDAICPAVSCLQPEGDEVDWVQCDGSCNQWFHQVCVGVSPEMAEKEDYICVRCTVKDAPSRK
- assay_remarks: Inhibition of KDM5B (unknown origin)
test_readout: IC50 (nM)
// return numeric value only (unit: nM, not printed)

# annotated cases, reported IC50 shown
# chemical_string, uom, IC50
data = [
    ("CC(C)c1c(-c2ccccc2)[nH]c2c(C#N)cnn2c1=O", "nM", 10),
    ("CCOC(=O)c1c(O)c2ccncc2[nH]c1=O", "nM", 20),
    ("O=C(O)CCC(=O)C(=O)O", "nM", 800000),
]

// below: IC50 requested for another molecule
Report IC50, nothing else, for this molecule: Cc1ccc(-n2sc3ccccc3c2=O)cc1
3000
